binders and their reported EC50
- target entity: T1, cynomolgus monkey OX40 protein (Novoprotein, #CB17) (cynomolgus monkey)
- T1 construct: Bought recombinant protein; also called cyno OX40
- protocol notes: ELISA, coated cyno OX40 protein
// return numeric value only (unit: nM, not printed)

The examples below pair each entry with its known result.
binder	EC50 / nM
PR002067 (antibody, human IgG1, V domains shown, no light chain; also called anti-OX40 HCAb antibody) VH: EVQLLESGGGLVQPGGSLRLSCAASGFTFSSYAMSWVRQAPGKGLEWVSAISGRGGSTFYADSVRGRFTISRDNSKNTLYLQMNSLRAEDTAMYYCVDGTTGTTDVDYWGQGTLVTVSS	0.232
PR002070 (antibody, human IgG1, V domains shown, no light chain; also called anti-OX40 HCAb antibody) VH: EVQLLESGGGLVQPGGSLRLSCIASGFSFSSYAMSWVRQAPGKGLEWVSAISGRGGSTFYADSVRGRFNISRDNSKNTLYLQMNSLRVEDTAVYYCANGMTGTTDVDYWGQGTLVTVSS	0.132
PR002074 (antibody, human IgG1, V domains shown, no light chain; also called anti-OX40 HCAb antibody) VH: EVQLLESGGGLVQPGGSLRLSCAASGFTFSSYAMSWVRQAPGKGLEWVSGISGGGNNTFYADSVRGRFTISRDNSKNTLYLQMNSLRAEDTAVYYCMRGWELPLLENWGQGTLVTVSS	0.14
PR002069 (antibody, human IgG1, V domains shown, no light chain; also called anti-OX40 HCAb antibody) VH: EVQLLESGGGLVQPGGSLRLSCAASGFTFSSYAMSWVRQAPGKGREWVSAISGGGGNTFYADSVRGRFTISRDNSKNTLYLQMNSLRAEDTAVYYCANGVTGTTDVDYWGQGTLVTVSS	0.129

Please give measured EC50 of the following entry: PR002075 (antibody, human IgG1, V domains shown, no light chain; also called anti-OX40 HCAb antibody) VH: EVQLVETGGGLIQPGGSLRLSCAASGFTFSSYAMSWVRQAPGKGLEWVSAISGSGGNTYYADSVRGRFTISRDNSKNTLYLQMNSLRAEDTAVYYCANGITGTTDVDYWGQGTRVTVSS
0.415

Please give measured EC50 of the following entry: PR002068 (antibody, human IgG1, V domains shown, no light chain; also called anti-OX40 HCAb antibody) VH: EVQLLESGGGLVQPGGSLRLSCAASGFSFSSYAMTWVRQAPGKGLEWVSAISGGGGSIFYADSVRGRFTISRDNSKNTLYLQMNSLRAEDTAVYYCANGMTGSTDVDYWGQGTQVTVSS
0.253

Please give measured EC50 of the following entry: PR002061 (antibody, human IgG1, V domains shown, no light chain; also called anti-OX40 HCAb antibody) VH: EVQLLESGGGLVQPGGSLRLSCAASGFTFSSYAMSWVRQAPGKGLEWVSAISGRGGSTYYADSVRGRFTISRDNSKNTLYLQMNSLRAEDTAVYYCANGMTGTTDVDYWGQGTLVTVSS
0.152

Measured values drawn from patent US20230295324A1 for this set.
